# Tested on: MS2 coat protein
# Test Method Notes: apparent Kd, MS2 coat protein; higher = weaker binding; RNA-MaP array; FMN 200 µM where present
# Particulars: ligand present: flavin mononucleotide; designed as: OFF switch for flavin mononucleotide
Endpoint Name: apparent Kd (nM)
Answers are plain numbers, in nM.

Worked examples follow.
UGACUAGUAAUGUAUCGAAAGAUCACAUGAGGAUCACCCAUGUAGGAUAUGAGCAGAAAAUCUGCUCAGAAGGACAUGCUAGUC = 7.36
ACGUGACAUGAGGAUCACCCAUGUGAGGAUAUCUGGAUAAUUUUUAUUUUAGAUAUCCAGAGAAGGCACAUGUU = 173
GGAAAUCAUGUAGGAUAUGCAUGGCGAAGCUACGCAGAAGGACAUGAGGAUCACCCAUGUUAAAGCUACCGAGUUCGGUGGCAA = 148

Q: Which apparent Kd reading was recorded for the sequence `UUAUUUUUACAGAAGGUUUAAUACUAUGUAUGAGAAGGAUAUGUAACAUGAGGAUCACCCAUGUUUUAUUUAUAUGAGGUUCGU` ?
Result: 12.5

Values were extracted from the EternaBench riboswitch data.
